test-protocol: chemical genetic growth profiling, strain panel (AID 1159580);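 note: tested at 20 µM; growth read once vehicle control cultures reached saturation at 30 °C; 1 = growth at the plate median or of vehicle wells; lower values mean less growth of the strain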
condition-label: S. cerevisiae deletion strains, growth OD, locus YPL256C, strain CLN2, active compounds read low
Hit rate of the full screen: of about 5,500 compounds, about 2,000 (36%) were called active. Not shown: some 18% with an inconclusive outcome. This is one part of the list.
Entries and their normalized growth values follow.

compound	normalized growth
C[C@H](N)[C@H](O)c1ccc(O)c(O)c1	0.992
CNc1ccccc1C(=O)O	0.838
N[C@@H](Cc1ccc(O)c(O)c1)C(=O)O	0.929
O[N+]1=CC=CCC1=S.On1ccccc1=S.[Zn]	0.114
Cc1c(Nc2ncccc2C(=O)O)cccc1C(F)(F)F	0.951
C=C(NC(=O)C(=C)NC(=O)c1csc(C2=NC3c4csc(n4)C4NC(=O)c5csc(n5)C(C(C)(O)C(C)O)NC(=O)C5CSC(=N5)C(=CC)NC(=O)C(C(C)O)NC(=O)c5csc(n5)C3(CC2)NC(=O)C(C)NC(=O)C(=C)NC(=O)C(C)NC(=O)C(C(C)CC)NC2C=Cc3c(C(C)O)cc(nc3C2O)C(=O)OC4C)n1)C(N)=O (stereo unspecified)	0.979

---

test-protocol: chemical genetic growth profiling, strain panel (AID 1159580)
condition-label: S. cerevisiae deletion strains, growth OD, locus YLR320W, strain mms22, active compounds read low
In all, about 5,500 compounds went through this assay and about 2,000 (36%) were called active. Inconclusive results (about 18%) are left out. This is one part of the list.
Dear colleague, classification is by normalized growth, with ranges listed here: class 1 (below 0.9), class 2 (0.9 to below 1), class 3 (1 or more)

                                   compound  class_label
0      CCOP(=S)(OCC)SCn1c(=O)oc2cc(Cl)ccc21      class 2
1                  NC[C@H](O)c1ccc(O)c(O)c1      class 3
2  C=CC(C1=CC(=O)C(OC)=CC1=O)c1ccccc1 (stereo not drawn)      class 1
3      NCC(O)c1ccc(O)cc1 (stereo not drawn)      class 3
4     O=[N+]([O-])c1ccc(O)c([N+](=O)[O-])c1      class 1
5  C=C[C@@H](C1=CC(=O)C(OC)=C(OC)C1=O)c1ccccc1      class 1
6  CC(C)NCC(O)c1ccc(O)c(O)c1 (stereo not drawn)      class 2
7                   O=C(O)/C=C/C=C/c1ccccc1      class 1
8                CNC[C@@H](O)c1ccc(O)c(O)c1      class 3

---

test-protocol: chemical genetic growth profiling, strain panel (AID 1159580)
condition-label: S. cerevisiae deletion strains, growth OD, locus YKL009W, strain mrt4
About 2,000 (36%) of roughly 5,500 compounds were called active. Roughly 18% stayed inconclusive and do not appear here. Cut-off read from the data, not from the text of the source: active = normalized growth mostly below about 0.91 (no sharp cut-off); inconclusive = no clear call, values can overlap the other calls; inactive = mostly above about 0.92. This is one part of the list.
Outcome codes: active, inactive

                                   compound  class_label
0  CC(=O)c1c(O)c(C)c(O)c2c1OC1=CC(=O)C(C(C)=O)C(=O)C12C (stereo unspecified)       active
1  C1CCN2C[C@@H]3C[C@H](CN4CCCC[C@@H]34)[C@H]2C1     inactive
2  C1CCN2CC3CC(CN4CCCCC34)C2C1 (stereo unspecified)     inactive
3  CC1(C)C(C(Cl)Cl)C2(Cl)C(Cl)C(Cl)C1(Cl)C2(Cl)Cl (stereo unspecified)     inactive
4  O=C1CCCC2C3CC(CN12)[C@@H]1CCCCN1C3 (stereo partly specified)     inactive
5  Nc1ncn([C@@H]2O[C@H](CO)[C@@H](O)[C@H]2O)c(=O)n1     inactive

---

test-protocol: chemical genetic growth profiling, strain panel (AID 1159580);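 note: tested at 20 µM; growth read once vehicle control cultures reached saturation at 30 °C; 1 = growth at the plate median or of vehicle wells; lower values mean less growth of the strain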
condition-label: S. cerevisiae deletion strains, growth OD, locus YJL154C, strain vps35, active compounds read low
In all, about 5,500 compounds went through this assay and about 2,000 (36%) were called active. Inconclusive results (about 18%) are left out. The list shows a part of the results.
Entries and their normalized growth values follow.
quantity-name: normalized growth

>>> print(df.to_string())
                                    molecule      quantity_name  test_value
 0                           O=C(O)C1=CCNCC1  normalized growth        1.01
 1                   O=C(O)c1ccccc1Nc1ccccc1  normalized growth       0.894
 2  CC(C)NCC(O)c1ccc2ccccc2c1 (configuration not stated)  normalized growth       0.992
 3  C1CCN2CC3CC(CN4CCCCC34)C2C1 (configuration not stated)  normalized growth        1.02
 4  O=C1CCCC2C3CC(CN12)[C@@H]1CCCCN1C3 (some centres not stated)  normalized growth       0.993
 5  CC(=O)Nc1ccc(S(=O)(=O)c2ccc(NC(C)=O)cc2)cc1  normalized growth        1.02
 6  NCCCC[C@H](N[C@@H](CCc1ccccc1)C(=O)O)C(=O)N1CCC[C@H]1C(=O)O  normalized growth        1.03
 7  CCCCC(CC)CN1CN(CC(CC)CCCC)CC(C)(N)C1 (configuration not stated)  normalized growth      0.0563
 8  CC(C)(C)NCC(O)c1ccccc1Cl (configuration not stated)  normalized growth       0.989
 9  C1CCN2C[C@@H]3C[C@H](CN4CCCC[C@@H]34)[C@H]2C1  normalized growth           1
10  C=C[C@@H](C1=CC(=O)C(OC)=C(OC)C1=O)c1ccccc1  normalized growth        1.01
11  C=CC(C1=CC(=O)C(OC)=CC1=O)c1ccc(OC)cc1 (configuration not stated)  normalized growth        0.96

---

test-protocol: chemical genetic growth profiling, strain panel (AID 1159580);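 note: tested at 20 µM; growth read once vehicle control cultures reached saturation at 30 °C; 1 = growth at the plate median or of vehicle wells; lower values mean less growth of the strain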
condition-label: S. cerevisiae deletion strains, growth OD, locus YNL197C, strain WHI3
Hit rate of the full screen: of about 5,500 compounds, about 2,000 (36%) were called active. Roughly 18% stayed inconclusive and do not appear here. Cut-off read from the data, not from the text of the source: active = normalized growth mostly below about 0.91 (no sharp cut-off); inconclusive = no clear call, values can overlap the other calls; inactive = mostly above about 0.92. The list shows a part of the results.
Outcome codes: active, inactive

In [3]: df
Out[3]:
                                    molecule  class_label
 0  COc1ccc2c(c1)[C@@]13CCCC[C@H]1[C@@H](C2)NCC3     inactive
 1                        O=S(=O)(O)C1CCNCC1     inactive
 2  CN1[C@@H](CC(=O)c2ccccc2)CCC[C@H]1C[C@H](O)c1ccccc1     inactive
 3  N[C@@H](CCC(=O)N[C@H](CSN=O)C(=O)NCC(=O)O)C(=O)O     inactive
 4  NC(Cc1ccc(O)c(O)c1)C(=O)O (stereo unspecified)     inactive
 5  Nc1ncnc2c1ncn2[C@@H]1O[C@H](COP(=O)(O)CP(=O)(O)OP(=O)(O)O)[C@H](O)C1O (stereo partly specified)     inactive
 6  CC(N)[C@H](O)c1ccc(O)c(O)c1 (stereo partly specified)     inactive
 7  CC(C)(C)NCC(O)c1ccccc1Cl (stereo unspecified)     inactive
 8  CN(C(=O)CCCOc1ccc2[nH]c(=O)ccc2c1)C1CCCCC1     inactive
 9  CC/C(=C(\c1ccccc1)c1ccc(OCCN(C)C)cc1)c1ccccc1       active
10  O=[N+]([O-])c1ccc(CSc2ncnc3c2ncn3[C@@H]2O[C@H](CO)[C@H](O)C2O)cc1 (stereo partly specified)     inactive

---

test-protocol: chemical genetic growth profiling, strain panel (AID 1159580);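 note: tested at 20 µM; growth read once vehicle control cultures reached saturation at 30 °C; 1 = growth at the plate median or of vehicle wells; lower values mean less growth of the strain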
condition-label: S. cerevisiae deletion strains, growth OD, locus YPR141C, strain kar3
The campaign covered roughly 5,500 compounds. About 2,000 (36%) were called active. Roughly 18% stayed inconclusive and do not appear here. Rule as the data show it: active = normalized growth mostly below about 0.91 (no sharp cut-off); inconclusive = no clear call, values can overlap the other calls; inactive = mostly above about 0.92. The list shows a part of the results.
Outcome codes: active, inactive

compound	class-label
CC(=O)c1c(O)c(C)c(O)c2c1OC1=CC(=O)C(C(C)=O)C(=O)C12C (stereo not given)	active
CC1(C)C(=O)C=CC2(C)C3CCC4(C)C(c5ccoc5)CC5OC54C3C(O)CC12 (stereo not given)	inactive
O=C1C=CC2=C3c4cc(O)c(O)cc4CC3(O)COC2=C1O (stereo not given)	inactive
CCCC(C)C1(CC)C(=O)N=C(S)NC1=O (stereo not given)	inactive
CC(=O)OCC1(C)CCC2(C)CCC3(C)C4=CCc5c(cc(OC(C)=O)c(OC(C)=O)c5C)C4(C)CCC3(C)C2C1 (stereo not given)	inactive
Nc1ncnc2c1ncn2C1C[C@H](O)[C@@H](CO)O1 (stereo not given in full)	inactive
COC(=O)C[C@H]1C(C)(C)C(=O)[C@@H]2CC3=C4CC(=O)O[C@@H](c5ccoc5)[C@]4(C)CCC3[C@@]1(C)C2=O (stereo not given in full)	inactive
CC(C)(C)NC[C@@H](O)COc1nsnc1N1CCOCC1	inactive
Nc1ncnc2c1ncn2C1O[C@H](COP(=O)(O)O)[C@@H](O)[C@H]1O (stereo not given in full)	inactive
Nc1nc2ncc(C(=O)O)nc2c(=O)[nH]1	inactive
Cc1ccsc1/C=C/C1=NCCCN1C	inactive
C=C[C@](C)(O)CCC=C(C)C	inactive
C=CC(C1=CC(=O)C(OC)=CC1=O)c1ccc(O)cc1 (stereo not given)	inactive
OC[C@@H](O)[C@@H](O[C@@H]1O[C@H](CO)[C@@H](O)[C@H](O)[C@H]1O)[C@H](O)[C@@H](O)CO	inactive
C=C(CC)C(=O)c1ccc(OCC(=O)O)c(Cl)c1Cl	active
CC(Cc1ccc(O)c(O)c1)C(C)Cc1ccc(O)c(O)c1 (stereo not given)	inactive
CC1(C)C(=O)C=C[C@@]2(C)C1=C(O)C(=O)[C@]1(C)C2CC[C@@]2(C)[C@H](c3ccoc3)C[C@H]3O[C@]321 (stereo not given in full)	inactive
COc1cc2c(c(OC)c1OC)-c1ccc(O)c(=O)cc1[C@@H](NC(C)=O)CC2	inactive
O=C1C=CC2=C3c4cc(O)c(O)cc4C[C@@]3(O)COC2=C1	inactive
C=CC(C1=CC(=O)C=CC1=O)c1ccccc1 (stereo not given)	inactive
O[N+]1=CC=CCC1=S.On1ccccc1=S.[Zn]	active
CC(=O)O[C@@H]1C[C@@]2(C)[C@H](c3ccoc3)C[C@H]3O[C@]32[C@]2(C)C(=O)C(O)=C3C(C)(C)C(=O)C=C[C@]3(C)C12 (stereo not given in full)	inactive
COc1cc2c(c(OC)c1OC)-c1ccc(OC)c(=O)cc1[C@@H](NC(C)=O)CC2	inactive
C=C[C@@H](C1=CC(=O)C(OC)=C(OC)C1=O)c1ccccc1	inactive
Nc1nc2c(ncn2C2C[C@H](O)[C@@H](CO)O2)c(=O)[nH]1 (stereo not given in full)	inactive
CCCCC1(COC(=O)CCC(=O)O)C(=O)N(c2ccccc2)N(c2ccccc2)C1=O	inactive
CCCC1O[C@@H]2CC3C4CCC5=CC(=O)C=CC5(C)C4[C@@H](O)CC3(C)[C@]2(C(=O)CO)O1 (stereo not given in full)	inactive
NCCCC[C@H](N[C@@H](CCc1ccccc1)C(=O)O)C(=O)N1CCC[C@H]1C(=O)O	inactive
O=[N+]([O-])c1cc([As](=O)(O)O)ccc1O	inactive
CCC(Cc1c(I)cc(I)c(N)c1I)C(=O)O (stereo not given)	inactive
CCCC(C)C1(CC)C(=O)NC(=O)NC1=O (stereo not given)	inactive
Nc1ccc(S(=O)(=O)Nc2ccccn2)cc1	inactive
CN[C@H](CC(=O)O)C(=O)O	inactive
CS(=O)(=O)CCCCN=C=S	inactive
O=C(CCCCCCCCCCCCC1CCCC1)Nc1ccc(S(=O)(=O)c2ccc(NC(=O)CCCCCCCCCCCCC3CCCC3)cc2)cc1	inactive
Cc1c(O)c(O)cc2c1CC=C1[C@@]2(C)CC[C@@]2(C)C3C[C@](C)(C(=O)O)CC[C@]3(C)CC[C@]12C (stereo not given in full)	inactive
Cc1ccc(/C(=C\CN2CCCC2)c2ccccn2)cc1	inactive
CC(=O)O[C@@H]1CC2C(C)(C)C=CC(=O)[C@]2(C)C2CC[C@@]3(C)[C@H](c4ccoc4)OC(=O)C4OC43[C@@]21C (stereo not given in full)	inactive
COC(=O)[C@]1(C)CC[C@]2(C)CC[C@]3(C)C4=CCc5c(cc(O)c(O)c5C)[C@]4(C)CC[C@@]3(C)C2C1 (stereo not given in full)	inactive
CO[C@H]1/C=C/O[C@@]2(C)Oc3c(C)c(O)c4c(O)c(c(/C=N/N5CCN(C)CC5)c(O)c4c3C2=O)NC(=O)/C(C)=C\C=C\C(C)[C@H](O)[C@@H](C)[C@@H](O)[C@@H](C)[C@@H](OC(C)=O)[C@@H]1C (stereo not given in full)	inactive
